- System: Human immunodeficiency virus 1
- protocol: Antiviral activity against HIV1 Env-pseudovirus infected in mouse 3T3.T4.CCR5 cells after 2 days by luciferase assay
- Assay type: functional, organism-based
- conditions_used: Human immunodeficiency virus 1, 3T3.T4.CCR5, 48 h; read-out: IC50
measured_endpoint: IC50 (nM)

molecule	result_unit	measurement
CC(C)=CC[C@H]1C[C@]2(CC=C(C)C)C(=O)[C@@](CC=C(C)C)(C(=O)C(C(=O)c3ccccc3)=C2O)C1(C)C (stereo in doubt; 1) [6-EPI-CLUSIANONE]	nM	1530
